Target: T1, human CD19 expressed on the cell surface (human, UniProt P15391 20-556)
T1 construct: CHO cells were transfected with the full-length cDNA encoding the transmembrane form of CD19; Raji, Daudi and ARH-77 cells carry endogenous CD19; also called CD19 on Raji B tumor cells; CD19 on Daudi B tumor cells
T1 sequence: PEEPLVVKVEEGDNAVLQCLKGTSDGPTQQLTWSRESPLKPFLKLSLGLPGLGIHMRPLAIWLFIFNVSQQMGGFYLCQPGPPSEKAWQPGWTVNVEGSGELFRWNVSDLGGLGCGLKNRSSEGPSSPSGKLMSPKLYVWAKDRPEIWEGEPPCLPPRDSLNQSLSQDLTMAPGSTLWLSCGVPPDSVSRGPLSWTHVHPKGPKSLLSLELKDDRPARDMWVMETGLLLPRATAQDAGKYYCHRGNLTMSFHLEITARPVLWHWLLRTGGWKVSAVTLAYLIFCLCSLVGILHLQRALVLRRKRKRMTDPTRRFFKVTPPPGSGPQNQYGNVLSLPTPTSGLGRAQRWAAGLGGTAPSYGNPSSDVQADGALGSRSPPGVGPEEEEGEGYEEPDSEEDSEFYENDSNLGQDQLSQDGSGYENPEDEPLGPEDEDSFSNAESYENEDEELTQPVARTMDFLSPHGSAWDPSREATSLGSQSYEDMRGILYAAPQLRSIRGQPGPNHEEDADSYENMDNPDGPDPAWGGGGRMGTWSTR
Test: Raji direct binding FACS, Geo Mean; unit from the concentration axis
ASSAY_ENDPOINT: EC50 (µg/mL)
// units = µg/mL; emit number, no label

Prompt: // returns reported EC50 for input 5G7-N19K (antibody, V domains shown, also called 5G7 with N-I-S changed to K-I-S) VH: EVQLVQSGAEVKKPGESLKISCKGSGYSFTSYWIGWVRQMPGKGLEWMGIIYPGDSDTRYSPSFQGQVTISADKSINTAYLQWSSLKASDTAMYYCARGVSMIWGVIMDVWGQGTTVTVSS VL: AIQLTQSPSSLSASVGDRVTITCRASQGISSALAWYQQKPGKAPKLLIYDASSLESGVPSRFSGSGSGTDFTLTISSLQPEDFATYYCQQFNSYPWTFGQGTKVEIK
Completion: 0.224

Prompt: GET /values?readout=EC50&item= 5G7-N19Q (antibody, V domains shown, Glycosylation-site variant of 5G7; also called 5G7 with N-I-S changed to Q-I-S) VH: EVQLVQSGAEVKKPGESLQISCKGSGYSFTSYWIGWVRQMPGKGLEWMGIIYPGDSDTRYSPSFQGQVTISADKSINTAYLQWSSLKASDTAMYYCARGVSMIWGVIMDVWGQGTTVTVSS VL: AIQLTQSPSSLSASVGDRVTITCRASQGISSALAWYQQKPGKAPKLLIYDASSLESGVPSRFSGSGSGTDFTLTISSLQPEDFATYYCQQFNSYPWTFGQGTKVEIK
Completion: 0.217

Prompt: For the binder human monoclonal antibody 21D4 (antibody, V domains shown, Fully human antibody from a KM mouse hybridoma, kappa light chain; also called HuMAb 21D4; parental anti-CD19 antibody 21D4) VH: EVQLVQSGAEVKKPGESLKISCKGSGYSFSSSWIGWVRQMPGKGLEWMGIIYPDDSDTRYSPSFQGQVTISADKSIRTAYLQWSSLKASDTAMYYCARHVTMIWGVIIDFWGQGTLVTVSS VL: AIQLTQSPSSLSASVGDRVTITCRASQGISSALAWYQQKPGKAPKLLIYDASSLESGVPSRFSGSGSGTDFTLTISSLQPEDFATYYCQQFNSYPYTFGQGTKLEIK , what EC50 is on record?
Completion: 0.141

Prompt: What measured EC50 goes with human monoclonal antibody 21D4a (antibody, V domains shown, Same heavy chain as 21D4, paired with the second light chain made by the 21D4 hybridoma) VH: EVQLVQSGAEVKKPGESLKISCKGSGYSFSSSWIGWVRQMPGKGLEWMGIIYPDDSDTRYSPSFQGQVTISADKSIRTAYLQWSSLKASDTAMYYCARHVTMIWGVIIDFWGQGTLVTVSS VL: AIQLTQSPSSLSASVGDRVTITCRASQGISSALAWYQQKPGKAPKLLIYDASSLESGVPSRFSGSGSGTDFTLTISSLQPEDFATYYCQQFNSYPFTFGPGTKVDIK ?
Completion: 0.129

Prompt: Query (binder): human monoclonal antibody 5G7 (antibody, V domains shown, N-linked carbohydrate in the variable (Fab) region at the N-I-S motif starting at position 19) VH: EVQLVQSGAEVKKPGESLNISCKGSGYSFTSYWIGWVRQMPGKGLEWMGIIYPGDSDTRYSPSFQGQVTISADKSINTAYLQWSSLKASDTAMYYCARGVSMIWGVIMDVWGQGTTVTVSS VL: AIQLTQSPSSLSASVGDRVTITCRASQGISSALAWYQQKPGKAPKLLIYDASSLESGVPSRFSGSGSGTDFTLTISSLQPEDFATYYCQQFNSYPWTFGQGTKVEIK ; field requested: EC50
Completion: 0.188

Prompt: What measured EC50 goes with human monoclonal antibody 13F1 (antibody, V domains shown) VH: EVQLVQSGAEVKKPGESLQISCKGSGYTFTNYWIAWVRQMPGKGLEWMGIIYPGDSDTRYSPSFQGQVTISADKSISTAYLQWSGLKASDTAMYYCARQGYSSGWRSYYGMGVWGQGTTVTVSS VL: AIQLTQSPSSLSASVGDRVTITCRASQGISSALAWYQQKPGKAPKLLIYDASSLESGVPSRFSGSGSGTDFTLTISSLQPEDFATYYCQQFNSYPHTFGQGTKLEIK ?
Completion: 0.266

Recorded values, source patent US20100104509A1.
